- test.protocol: logP by HPLC on reversed-phase column (EEC Directive 79/831 Annex V.A8)
- Format: physicochemical
- condition.info: HPLC on reversed-phase column (C 18), 40° C., 0.1% aqueous formic acid and acetonitrile, linear gradient 10% to 90% acetonitrile
- Protocol: In table 1, the logP values were determined in accordance with EEC Directive 79/831 Annex V.A8 by HPLC (High Performance Liquid Chromatography) on a reversed-phase column (C 18), using the method described below: Temperature: 40° C.; Mobile phases: 0.1% aqueous formic acid and acetonitrile; linear gradient from 10% acetonitrile to 90% acetonitrile. […]
reported.endpoint: logP

1. Cn1nc(C(F)F)c(C(=O)N(Cc2cc(C(F)(F)F)nc3ccccc23)C2CC2)c1Cl: 3.72

a = Cn1nc(C(F)F)c(C(=O)N(Cc2csc3ccccc23)C2CC2)c1F
b = CN(Cc1cccnc1Cl)C(=O)c1c(C(F)F)nn(C)c1F
# min-compare on logP between a and b In your reply, give the label of the chosen option.
b

P = Cn1nc(C(F)F)c(C(=O)N(Cc2cccs2)C2CC2)c1Cl
Q = Cc1sc(-c2ccccc2)cc1C(C)N(C(=O)c1c(C(F)F)nn(C)c1F)C1CC1 (stereo not drawn)
# min-compare on logP between P and Q In your reply, give the label of the chosen option.
P

----------
- Test system: Pyrenophora teres
- test.protocol: in vivo preventive test on Pyrenophora teres (barley)
- condition.info: 500 ppm of active ingredient, evaluated 7-9 days after inoculation
- Experimental: Solvent: 49 parts by weight of N,N-dimethylformamide Emulsifier: 1 part by weight of alkylaryl polyglycol ether To produce a suitable preparation of active compound, 1 part by weight of active compound is mixed with the stated amounts of solvent and emulsifier, and the concentrate is diluted with water to the desired concentration. […] The test is evaluated 7-9 days after the inoculation. […]
reported.endpoint: Efficacy (%)
Record the value in %, omitting the unit from your answer.

1. Cn1nc(C(F)F)c(C(=O)N(Cc2ccnc3cc(Cl)cc(Cl)c23)C2CC2)c1F [Example 163]: 94
2. CN(Cc1cc(-c2ccccc2)no1)C(=O)c1c(C(F)F)nn(C)c1F [Example 110]: 100
3. Cn1nc(C(F)F)c(C(=O)N(Cc2cccs2)C2CC2)c1Cl [Example 31]: 100
4. CC(C)Oc1ccc(CN(C)C(=O)c2c(C(F)F)nn(C)c2F)cn1 [Example 102]: 70
5. Cn1nc(C(F)F)c(C(=O)N(Cc2cc(Cl)nc3ccccc23)C2CC2)c1F [Example 138]: 100

Data point: Cn1nc(C(F)F)c(C(=O)N(Cc2cnc(Cl)cc2Cl)C2CC2)c1F [Example 118] ; Efficacy = 100

Data point: Cc1ccsc1CN(C(=O)c1c(C(F)F)nn(C)c1Cl)C1CC1 [Example 39] ; Efficacy = 100

Data point: Cn1nc(C(F)F)c(C(=O)N(Cc2cc3ccccc3n2-c2ccccc2)C2CC2)c1F [Example 155] ; Efficacy = 100

----------
Measured Efficacy, listed per entry for reference.
- System: Pyrenophora teres
- test.protocol: in vivo preventive test on Pyrenophora teres (barley)
- condition.info: 500 ppm of active ingredient, evaluated 7-9 days after inoculation
Record the value in %, omitting the unit from your answer.

Reported Pyrenophora teres Efficacy for item CC(C)c1nn(-c2ccccc2)c(Cl)c1CN(C(=O)c1c(C(F)F)nn(C)c1F)C1CC1 was 100

Reported Pyrenophora teres Efficacy for item CSc1ncc(C(C(C)C)N(C)C(=O)c2c(C(F)F)nn(C)c2F)c(C(F)(F)F)n1 (stereo not shown) was 90

Reported Pyrenophora teres Efficacy for item Cc1nc(-c2ccc(Cl)cc2)sc1CN(C(=O)c1c(C(F)F)nn(C)c1F)C1CC1 was 100

Reported Pyrenophora teres Efficacy for item CC(c1cc2ccccc2s1)N(C(=O)c1c(C(F)F)nn(C)c1F)C1CC1 (racemic) was 100
